target: EGFR Del19/C797S (Homo sapiens, UniProt P00533, C797S/DEL746-750); assay: Biochemical EGFR kinase inhibition assay (Lance Ultra TR-FRET), double mutant del19/C797S; details: IC50 Del19/C797S (nM), 100 μM ATP
Sequence (P00533 with tags, fused parts or gaps DEL746-750/C797S): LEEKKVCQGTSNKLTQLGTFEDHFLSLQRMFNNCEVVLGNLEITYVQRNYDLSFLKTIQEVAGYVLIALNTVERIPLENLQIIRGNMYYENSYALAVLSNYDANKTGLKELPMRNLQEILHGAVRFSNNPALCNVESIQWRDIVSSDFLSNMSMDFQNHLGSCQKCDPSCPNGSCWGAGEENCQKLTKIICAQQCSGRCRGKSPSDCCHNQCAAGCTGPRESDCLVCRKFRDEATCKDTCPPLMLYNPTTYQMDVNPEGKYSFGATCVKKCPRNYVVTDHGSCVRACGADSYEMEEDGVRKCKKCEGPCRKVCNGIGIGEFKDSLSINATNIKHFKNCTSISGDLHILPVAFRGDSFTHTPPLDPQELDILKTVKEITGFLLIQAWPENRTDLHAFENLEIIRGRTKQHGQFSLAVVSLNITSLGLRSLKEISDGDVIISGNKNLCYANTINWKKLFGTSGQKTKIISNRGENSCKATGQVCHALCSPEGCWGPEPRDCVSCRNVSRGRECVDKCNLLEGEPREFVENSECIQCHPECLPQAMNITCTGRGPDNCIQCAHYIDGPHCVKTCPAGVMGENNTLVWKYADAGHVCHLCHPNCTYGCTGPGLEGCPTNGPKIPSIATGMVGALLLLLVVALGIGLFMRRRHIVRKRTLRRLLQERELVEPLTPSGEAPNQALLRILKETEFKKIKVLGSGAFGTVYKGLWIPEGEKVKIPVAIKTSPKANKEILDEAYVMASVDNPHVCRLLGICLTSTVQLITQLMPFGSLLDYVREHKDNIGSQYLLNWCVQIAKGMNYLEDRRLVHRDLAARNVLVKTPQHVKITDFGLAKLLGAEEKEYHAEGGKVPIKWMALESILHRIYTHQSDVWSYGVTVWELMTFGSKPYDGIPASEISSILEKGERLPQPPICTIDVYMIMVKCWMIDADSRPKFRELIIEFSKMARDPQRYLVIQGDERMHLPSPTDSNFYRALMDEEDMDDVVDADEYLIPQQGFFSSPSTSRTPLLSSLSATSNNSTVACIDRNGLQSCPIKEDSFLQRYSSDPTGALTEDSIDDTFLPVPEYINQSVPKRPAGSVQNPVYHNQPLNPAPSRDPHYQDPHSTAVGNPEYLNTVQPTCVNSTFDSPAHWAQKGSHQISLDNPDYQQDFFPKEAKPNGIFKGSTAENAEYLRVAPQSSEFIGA
Value type: IC50 (nM)

- O=S(=O)(C1CC1)n1cc(-c2nccc(Nc3cc(N[C@H]4CC[C@@H](O)CC4)c(C#Cc4ncc(CN5CCOCC5)cn4)cn3)n2)cn1 [Example 194]: 3.3
- C[C@]1(O)CCCN(c2cc(Nc3ccnc(-c4cnn(S(=O)(=O)C5CC5)c4)n3)ncc2C#Cc2cnn(C(F)(F)F)c2)C1 [Example 448]: 44.7
- Cn1cc(C#Cc2cnc(Nc3ccnc(-c4cnn(S(=O)(=O)C5CC5)c4)n3)cc2N2CCC(NCCF)CC2)cn1 [Example 129]: 4.4
- O=S(=O)(C1CC1)n1cc(-c2nccc(Nc3cc(NCC4CCC(O)CC4)c(C#CC4CCCO4)cn3)n2)cn1 (stereo not shown) [Example 375]: 34.8
- Cn1cc(C#Cc2cnc(Nc3ccnc(-c4cnn(S(=O)(=O)C5CC5)c4)n3)cc2N2CCC(C)(CO)CC2)cn1 [Example 12]: 1.9

[P] O=S(=O)(C1CC1)n1cc(-c2nccc(Nc3cc(NC4CCC(O)CC4)c(C#CC4CCCO4)cn3)n2)cn1 (stereo not shown) [Example 376]
[Q] Cn1cc(C#Cc2cnc(Nc3ccnc(-c4cnn(S(=O)(=O)C5CC5)c4)n3)cc2N2CCC(NCC(F)F)CC2)cn1 [Example 126]
In: For the pair P and Q , which member has the lower IC50 number? Identify your selection by its label.
Out: Q
(Q: 1.6 nM, P: 2.5 nM)
